# study.system: Androgen Receptor (Homo sapiens)
# Construct: endogenous in cells; host or cells: VCaP cells
# Sequence (P10275 1-920): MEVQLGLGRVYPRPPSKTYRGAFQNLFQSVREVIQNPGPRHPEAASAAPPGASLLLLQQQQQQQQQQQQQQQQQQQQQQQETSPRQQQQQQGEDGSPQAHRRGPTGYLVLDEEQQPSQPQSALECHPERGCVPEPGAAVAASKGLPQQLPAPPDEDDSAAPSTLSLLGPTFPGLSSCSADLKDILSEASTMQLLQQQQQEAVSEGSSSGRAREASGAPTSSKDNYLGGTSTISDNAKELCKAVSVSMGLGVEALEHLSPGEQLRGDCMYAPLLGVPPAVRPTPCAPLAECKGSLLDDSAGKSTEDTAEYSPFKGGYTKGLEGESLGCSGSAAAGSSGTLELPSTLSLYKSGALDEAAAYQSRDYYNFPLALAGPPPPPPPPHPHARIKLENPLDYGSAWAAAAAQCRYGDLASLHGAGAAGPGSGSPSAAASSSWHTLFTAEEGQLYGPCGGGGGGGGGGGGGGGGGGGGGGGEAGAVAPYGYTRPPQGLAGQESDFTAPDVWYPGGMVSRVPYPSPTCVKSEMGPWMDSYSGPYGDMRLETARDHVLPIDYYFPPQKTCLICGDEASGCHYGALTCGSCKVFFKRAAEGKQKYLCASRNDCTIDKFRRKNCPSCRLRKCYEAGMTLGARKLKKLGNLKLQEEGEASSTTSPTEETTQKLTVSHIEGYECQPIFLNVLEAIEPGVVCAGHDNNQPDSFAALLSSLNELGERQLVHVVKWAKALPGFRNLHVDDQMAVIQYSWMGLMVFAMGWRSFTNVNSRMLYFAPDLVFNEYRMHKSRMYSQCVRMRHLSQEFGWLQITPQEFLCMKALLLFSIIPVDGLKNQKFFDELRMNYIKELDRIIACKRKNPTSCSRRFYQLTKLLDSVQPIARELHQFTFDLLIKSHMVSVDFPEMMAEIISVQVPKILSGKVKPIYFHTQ
# assay.overview: Androgen Receptor ELISA assay (PathScan AR ELISA) in VCaP cells: AR degradation, Dmax and DC50
# Assay type: cell-based
# stated.conditions: VCaP, read-out: VCaP Dmax (%)
Reported Dmax by item:

See these solved cases before continuing.
compound: Cc1ncsc1-c1ccc(CNC(=O)[C@@H]2C[C@@H](O)CN2C(=O)[C@@H](NC(=O)CCCOCCOc2ccc(-c3ccc(N4C(=S)N(c5ccc(C#N)c(C(F)(F)F)c5)C(=O)C4(C)C)cc3)cc2)C(C)(C)C)cc1 [Example 260]
result: 26 to 50%

compound: Cc1ncsc1-c1ccc(CNC(=O)[C@@H]2C[C@@H](O)CN2C(=O)[C@@H](NC(=O)COC[C@@H](O)CCOc2ccc(-c3ccc(N4C(=S)N(c5ccc(C#N)c(C(F)(F)F)c5)C(=O)C4(C)C)cc3)cc2)C(C)(C)C)cc1 [Example 131]
result: > 71%

compound: Cc1ncsc1-c1ccc([C@H](C)NC(=O)[C@@H]2C[C@@H](O)CN2C(=O)[C@@H](NC(=O)COCCCOCCCCCOc2ccc(N3C(=S)N(c4ccc(C#N)c(C(F)(F)F)c4)C(=O)C3(C)C)cc2)C(C)(C)C)cc1 [Example 4]
result: 51 to 70%

Next compound, Dmax to be filled in.
Problem: Given the entry Cc1ncsc1-c1ccc([C@H](C)NC(=O)[C@@H]2C[C@@H](O)CN2C(=O)[C@@H](C(C)C)n2cc(OCCCOCCC(O)CCOc3ccc(N4C(=S)N(c5ccc(C#N)c(C(F)(F)F)c5)C(=O)C4(C)C)cc3)cn2)cc1 (stereo partly shown) [Example 418] , report its measured Dmax.
Result: 51 to 70%

These entries and their values trace back to patent US11427548B2.
